Origin of the recorded values: PubChem BioAssay AID2060883

Please respond with reported viability, T/C for every item in the list.
Tested on: 843782-103-R-J1-PDC complex spheroid viability
TEST METHOD NOTES: Anticancer human tumor 843782-103-R-J1-PDC patient-derived lung adenocarcinoma cell line growth inhibition [RAS]
CONDITIONS USED: second compound 0.316 µM; first compound 0.1 µM; stronger effect = lower value
State the answer as a number, implicitly in %.

Enquiry: Item CC(Nc1ccc2c(c1)OCCn1cc(N3C(=O)OCC3C(F)F)nc1-2)C(N)=O (stereo not drawn) + C=CC(=O)N1CCN(c2nc(OCC3CCCN3C)nc3c(F)c(-c4nc(N)cc(C)c4C(F)(F)F)c(Cl)cc23)C(C)C1 has what recorded viability, T/C?
Return: 54.2

Enquiry: Reported viability, T/C for Nc1ccn(C2OC(CO)C(O)C2(F)F)c(=O)n1 (stereo not drawn) + C=CC(=O)N1CCN(c2nc(OCC3CCCN3C)nc3c(F)c(-c4nc(N)cc(C)c4C(F)(F)F)c(Cl)cc23)C(C)C1 : what is it?
Return: 4.66

Enquiry: Which viability, T/C is reported for this molecule? CC1(O)CCCC1n1c(=O)c(C(F)F)cc2cnc(NC3CCN(S(C)(=O)=O)CC3)nc21 (stereo not drawn) + C=CC(=O)N1CCN(c2nc(OCC3CCCN3C)nc3c(F)c(-c4nc(N)cc(C)c4C(F)(F)F)c(Cl)cc23)C(C)C1
Return: 58.8

* * *

Tested on: 843782-103-R-J1-PDC complex spheroid viability
TEST METHOD NOTES: Anticancer human tumor 843782-103-R-J1-PDC cell line growth inhibition [RAS]; active means viability on the fitted dose curve at most 10% of control; inactive means the rest;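 further: viability read after seven days of compound exposure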
CONDITIONS USED: second compound 0.00949 µM; first compound 0.03 µM
Parameter call: string, one of active, inactive

Enquiry: Tell me the assay call for CC1(C)CCC(Nc2ncc(C(F)(F)F)c(-c3c[nH]c4c(P(C)(C)=O)c(C#N)ccc34)n2)CN1 (centres undefined) + CCn1c(-c2cc(N3CCN(C)CC3)cnc2C(C)OC)c2c3cc(ccc31)-c1csc(n1)CC(NC(=O)C1CC1C)C(=O)N1CCCC(N1)C(=O)OCC(C)(C)C2 please.
Return: inactive

Enquiry: Hi, do you know how CC1(C)CCC(Nc2ncc(C(F)(F)F)c(-c3c[nH]c4c(P(C)(C)=O)c(C#N)ccc34)n2)CN1 (centres undefined) + CCn1c(-c2cccnc2C(C)OC)c2c3cc(ccc31)N1CCOC(CC(NC(=O)C(C(C)C)N(C)C(=O)C3(F)CCN(C(=O)C#CC(C)(C)N(C)C)CC3)C(=O)N3CCCC(N3)C(=O)OCC(C)(C)C2)C1 came out in this test?
Return: inactive

Enquiry: // param item: CCc1c2c(nc3ccc(O)cc13)-c1cc3c(c(=O)n1C2)COC(=O)[C@]3(O)CC + CCn1c(-c2cccnc2C(C)OC)c2c3cc(ccc31)N1CCOC(CC(NC(=O)C(C(C)C)N(C)C(=O)C3(F)CCN(C(=O)C#CC(C)(C)N(C)C)CC3)C(=O)N3CCCC(N3)C(=O)OCC(C)(C)C2)C1 ; yields the recorded call
Return: active

Enquiry: Could you check what this test reported for CCc1c2c(nc3ccc(O)cc13)-c1cc3c(c(=O)n1C2)COC(=O)[C@]3(O)CC + CCn1c(-c2cc(N3CCN(C)CC3)cnc2C(C)OC)c2c3cc(ccc31)-c1csc(n1)CC(NC(=O)C1CC1C)C(=O)N1CCCC(N1)C(=O)OCC(C)(C)C2 ?
Return: active

* * *

Tested on: 843782-103-R-J1-PDC complex spheroid viability
TEST METHOD NOTES: Anticancer human tumor 843782-103-R-J1-PDC cell line growth inhibition [RAS]; active = viability on the fitted dose curve at most 10% of control; inactive = the rest;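 further: viability read after seven days of compound exposure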
CONDITIONS USED: second compound 0.316 µM; first compound 0.00949 µM
Text: RAS pathway inhibitors in Combinations in Complex Spheroids A high-throughput screen of multi-cell type tumor spheroids was designed to identify active combinations of RAS pathway inhibitors and targeted small molecules. Complex spheroids include a stromal component modeled by human endothelial cells (HUVEC) and fibroblasts modeled by human mesenchymal stem cells (MSCs). […] Compounds. […] If the clinical Cmax for an agent had not been determined, the highest concentration tested was 10 microM. […]
Could you please pick one outcome from this set? active, inactive

Enquiry: Per the records of this test, what outcome belongs to CC1(C)CCC(Nc2ncc(C(F)(F)F)c(-c3c[nH]c4c(P(C)(C)=O)c(C#N)ccc34)n2)CN1 (centres undefined) + C#Cc1c(F)ccc2cc(O)cc(-c3ncc4c(N5CC6CCC(C5)N6)nc(OCC56CCCN5CC(F)C6)nc4c3F)c12 ?
Return: inactive

Enquiry: I'd appreciate the recorded outcome for CC1(C)CCC(Nc2ncc(C(F)(F)F)c(-c3c[nH]c4c(P(C)(C)=O)c(C#N)ccc34)n2)CN1 (centres undefined) + C=CC(=O)N1CCN(c2nc(OCC3CCCN3C)nc3c(F)c(-c4nc(N)cc(C)c4C(F)(F)F)c(Cl)cc23)C(C)C1 from this test.
Return: inactive

Enquiry: For this compound, state the assay outcome: CCc1c2c(nc3ccc(O)cc13)-c1cc3c(c(=O)n1C2)COC(=O)[C@]3(O)CC + C=CC(=O)N1CCN(c2nc(OCC3CCCN3C)nc3c(F)c(-c4nc(N)cc(C)c4C(F)(F)F)c(Cl)cc23)C(C)C1
Return: active

Enquiry: // return assay outcome for CCc1c2c(nc3ccc(O)cc13)-c1cc3c(c(=O)n1C2)COC(=O)[C@]3(O)CC + C#Cc1c(F)ccc2cc(O)cc(-c3ncc4c(N5CC6CCC(C5)N6)nc(OCC56CCCN5CC(F)C6)nc4c3F)c12
Return: active

* * *

Test system: 843782-103-R-J1-PDC complex spheroid viability
TEST METHOD NOTES: Anticancer human tumor 843782-103-R-J1-PDC cell line growth inhibition [RAS];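 further: viability read after seven days of compound exposure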
CONDITIONS USED: second compound 0.003 µM; first compound 0.003 µM; stronger effect = lower value
QUANTITY MEASURED: viability, T/C

Enquiry: For the record CC1(C)CCC(Nc2ncc(C(F)(F)F)c(-c3c[nH]c4c(P(C)(C)=O)c(C#N)ccc34)n2)CN1 (centres undefined) + CCn1c(-c2cc(N3CCN(C)CC3)cnc2C(C)OC)c2c3cc(ccc31)-c1csc(n1)CC(NC(=O)C1CC1C)C(=O)N1CCCC(N1)C(=O)OCC(C)(C)C2 , what value of viability, T/C is listed for 843782-103-R-J1-PDC complex spheroid viability?
Return: 46.6%

Enquiry: Quick check: viability, T/C on 843782-103-R-J1-PDC complex spheroid viability, item CCc1c2c(nc3ccc(O)cc13)-c1cc3c(c(=O)n1C2)COC(=O)[C@]3(O)CC + CCn1c(-c2cc(N3CCN(C)CC3)cnc2C(C)OC)c2c3cc(ccc31)-c1csc(n1)CC(NC(=O)C1CC1C)C(=O)N1CCCC(N1)C(=O)OCC(C)(C)C2 ?
Return: 20.9%

Enquiry: Lookup: viability, T/C / 843782-103-R-J1-PDC complex spheroid viability / CC1(C)CCC(Nc2ncc(C(F)(F)F)c(-c3c[nH]c4c(P(C)(C)=O)c(C#N)ccc34)n2)CN1 (centres undefined) + CCn1c(-c2cccnc2C(C)OC)c2c3cc(ccc31)N1CCOC(CC(NC(=O)C(C(C)C)N(C)C(=O)C3(F)CCN(C(=O)C#CC(C)(C)N(C)C)CC3)C(=O)N3CCCC(N3)C(=O)OCC(C)(C)C2)C1
Return: 46.3%

Enquiry: Provide value of viability, T/C for this record tested with 843782-103-R-J1-PDC complex spheroid viability: CCc1c2c(nc3ccc(O)cc13)-c1cc3c(c(=O)n1C2)COC(=O)[C@]3(O)CC + CCn1c(-c2cccnc2C(C)OC)c2c3cc(ccc31)N1CCOC(CC(NC(=O)C(C(C)C)N(C)C(=O)C3(F)CCN(C(=O)C#CC(C)(C)N(C)C)CC3)C(=O)N3CCCC(N3)C(=O)OCC(C)(C)C2)C1
Return: 27%

* * *

System: 843782-103-R-J1-PDC complex spheroid viability
TEST METHOD NOTES: Anticancer human tumor 843782-103-R-J1-PDC cell line growth inhibition [RAS];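 further: viability read after seven days of compound exposure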
CONDITIONS USED: second compound 1 µM; first compound 1 µM; stronger effect = lower value
Provide the reported viability, T/C of each item.
Write down the numeric answer in % and omit the unit.

Enquiry: Param item = Nc1ccn(C2OC(CO)C(O)C2(F)F)c(=O)n1 (stereo not drawn) + C#Cc1c(F)ccc2cc(O)cc(-c3ncc4c(N5CC6CCC(C5)N6)nc(OCC56CCCN5CC(F)C6)nc4c3F)c12 ; retrieve measured viability, T/C.
Return: 2.29

Enquiry: // viability, T/C lookup, key: Cc1nc(N2CCC3(CC2)COC(C)C3N)c(CO)nc1Sc1ccnc(N)c1Cl (stereo not drawn) + C#Cc1c(F)ccc2cc(O)cc(-c3ncc4c(N5CC6CCC(C5)N6)nc(OCC56CCCN5CC(F)C6)nc4c3F)c12
Return: 39.5

Enquiry: Need viability, T/C, item CC(Nc1ccc2c(c1)OCCn1cc(N3C(=O)OCC3C(F)F)nc1-2)C(N)=O (stereo not drawn) + C=CC(=O)N1CCN(c2nc(OCC3CCCN3C)nc3c(F)c(-c4nc(N)cc(C)c4C(F)(F)F)c(Cl)cc23)C(C)C1
Return: 26.5
